Experiment: PK study of male SD rats after single intragastric administration (5% solutol)
Format: in vivo
Conditions: male, SD, rat, plasma, po, 100 mg/kg, single PO compound 1-6 100 mg/kg, analyte compound 1-6, animal 5
TEST_READOUT: AUC(0-t) (ng·h/mL)
Report the value in ng·h/mL with no unit label.

Asked: Return reported AUC(0-t); argument: `O=C(c1ccc(F)cc1C(F)(F)F)c1cnc2n1CCN(c1cn[nH]c(=O)c1Cl)C2`
Given back: 11200

----------
Assay: PK study of male SD rats after single intragastric administration (5% solutol)
Format: in vivo
Settings: male, SD, rat, plasma, po, 100 mg/kg, single PO compound 1-6 100 mg/kg, analyte compound 1-6, animal 5
TEST_READOUT: Cmax (ng/mL)
Give the value, in units of ng/mL, as a plain number.

Asked: Recorded Cmax for O=C(c1ccc(F)cc1C(F)(F)F)c1cnc2n1CCN(c1cn[nH]c(=O)c1Cl)C2 [Compound 1-6] , please?
Given back: 1290
